Test system: OVCAR-4 ovarian
experiment notes: NCI tumour cell line growth inhibition, 48 h
We begin with a simple list: items and their reported GI50.

// below: answered compounds
> print(dat)
                                   compound   result
1  COc1cc(Nc2nccc(Nc3ccc4c(C)[nH]nc4c3)n2)cc(OC)c1OC  4.04 µM
2  O=S(=O)(NC1=NCCN1C(=S)SN1CCn2c1nsc2=S)c1ccc(Br)cc1  49.2 µM
3  O=c1c2cc(Cl)ccc2oc2ccc(OCCCCCN3CCCCC3)cc12   5.5 µM
4  COc1cc(OC)cc(C2CC(=O)Nc3c2c(C)nn3-c2nc3ccccc3[nH]2)c1 (stereo not given)  4.64 µM

Could you share which GI50 value was measured for `O=[N+]([O-])c1cc(Cl)c(Cl)c([N+](=O)[O-])c1Cl` ? 1.69 µM

###

TGI for assorted molecules
System: MCF7 breast
experiment notes: NCI tumour cell line growth inhibition, 48 h
Please reply with the bare figure in µM and do not write the unit itself.

Example entries begin here.
molecule	TGI [µM]
CN[C@@H](C)C(=O)N[C@H](C(=O)N1CCC[C@H]1C(=O)N[C@H]1c2ccccc2C[C@H]1OCC#CC#CCO[C@@H]1Cc2ccccc2[C@@H]1NC(=O)[C@@H]1CCCN1C(=O)[C@@H](NC(=O)[C@H](C)NC)C1CCCCC1)C1CCCCC1	3.23
COc1ccc([N+](=O)[O-])c2c(NCCCN(C)C)c3ccccc3nc12	0.203
CCN(CC)CCC(=O)NC1c2ccc(Cl)cc2Oc2c(C)cccc21 (centres undefined)	31

# next molecule below
What does the record list as TGI for `COc1cc(Nc2nccc(Nc3ccc4c(C)[nH]nc4c3)n2)cc(OC)c1OC` ? 16.9

###

Recorded TGI, one value per entry.
Test system: A549 NSCLC
experiment notes: NCI tumour cell line growth inhibition, 48 h

A selection of reference data follows.
> print(dat)
                                   compound  system.under.test    result
1  C=C1C(=O)OC2/C=C(\CO)C3OC3C3OC3(C)CC(OC(=O)/C(=C/C)CO)C12 (stereo not given)         A549 NSCLC  > 100 µM
2       CCOC(=O)Nc1nc2ccc(Cn3cccc3)cc2[nH]1         A549 NSCLC  > 100 µM
3  O=[N+]([O-])c1cccc(/C=N\NS(=O)(=O)c2ccc(Cl)cc2)c1O         A549 NSCLC  > 100 µM
4  COc1cc(Nc2nccc(Nc3ccc4c(C)[nH]nc4c3)n2)cc(OC)c1OC         A549 NSCLC   5.41 µM
5  CCOC(=O)C1=CN/C(=C(/C)C(=O)OC)SC1C(=O)OCC (stereo not given)         A549 NSCLC  > 100 µM
6  CSc1ccc(C2=NN(C(=O)c3ccc(F)cc3)C(c3ccc(F)cc3)C2)cc1 (stereo not given)         A549 NSCLC   26.9 µM

Hello, I am looking for reported TGI with A549 NSCLC for `CCNC(=O)CCN(C(=O)O)S(=O)(=O)c1ccc(NC(=O)c2ccccc2)cc1` . Could you help? > 100 µM

Enter reported TGI observed with A549 NSCLC for COc1cc(S(=O)(=O)Nc2nc(-c3ccc(N4C(=O)C(CC(=O)O)SC4c4ccccc4O)cc3)cs2)ccc1Cl (stereo not given) > 100 µM

Identify the measured TGI of `Cc1cc([C@H](C#N)c2nc3ccccc3[nH]2)nc(Cl)n1` for A549 NSCLC. > 100 µM

Under A549 NSCLC: TGI value of O=C1c2ccccc2C(O)(C(=O)O)C1(O)CC=C(Cl)Cl (stereo not given) ? > 125 µM
